- System: hTERT-BJ
- test_protocol: Inhibition of mitotic progression in human hTERT-BJ cells transformed with hTert, small t, shRNAs against p53 and pRb and H-RasV12-ER assessed as increase in phosphorylated histone H3 (Ser10) level at 5 uM after 24 hrs by immunoblot analysis relative to control
- Type: functional
measured_parameter: fold change (FC)
Number only, no unit.

Any idea what its fold change (FC) is? The molecule is CC(=O)Nc1ccc2[nH]cc(/C(C#N)=C/c3cccc4cnccc34)c2c1
1.2

Any idea what its fold change (FC) is? The molecule is COCCOc1ccc2[nH]cc(/C(C#N)=C/c3cccc4cnccc34)c2c1
1.6

Any idea what its fold change (FC) is? The molecule is N#C/C(=C\c1cccc2cnccc12)c1c[nH]c2c(CN3CCCC3)cccc12
0.8

Any idea what its fold change (FC) is? The molecule is N#C/C(=C\c1cncc2cnccc12)c1c[nH]c2ccccc12
1.4

Any idea what its fold change (FC) is? The molecule is NC(=O)/C(=C\c1cccc2cnccc12)c1c[nH]c2ccccc12
1.3

Any idea what its fold change (FC) is? The molecule is Cc1[nH]c2ccccc2c1/C(C#N)=C/c1cccc2cnccc12
1.1

Any idea what its fold change (FC) is? The molecule is N#C/C(=C\c1cccc2cnccc12)c1c[nH]c2c(Br)cccc12
1.4

Any idea what its fold change (FC) is? The molecule is N#C/C(=C\c1ccnc2ccccc12)c1c[nH]c2ccccc12
1.4

Any idea what its fold change (FC) is? The molecule is Cn1cc(/C(C#N)=C/c2cccc3cnccc23)c2ccccc21
1.1

Any idea what its fold change (FC) is? The molecule is N#C/C(=C\c1cccc2cnccc12)c1c[nH]c2ncccc12
1.8

Any idea what its fold change (FC) is? The molecule is N#C/C(=C\c1cccc2cnccc12)c1c[nH]c2ccc(Cl)cc12
1.4
